# TEST_METHOD_NOTES: Plasma pharmacokinetics of acivicin in cats with concomitant infusion
# TEST_CONTEXT: cat, in vivo, ip, 60 mg/kg, Aminosyn infusion, n=2; mean ± s.d.
MEASURED_PARAMETER: k el (s⁻¹)
State just the number; it will be interpreted in s⁻¹.

Just so you know, measured k el for N[C@H](C(=O)O)[C@@H]1CC(Cl)=NO1 [Acivicin] came out at 4.44e-05

###

# TEST_METHOD_NOTES: Plasma pharmacokinetics of acivicin in cats with concomitant infusion
# TEST_CONTEXT: cat, in vivo, ip, 60 mg/kg, Aminosyn infusion, n=2; mean ± s.d.
MEASURED_PARAMETER: half-life (h)
State just the number; it will be interpreted in h.

Just so you know, measured half-life for N[C@H](C(=O)O)[C@@H]1CC(Cl)=NO1 came out at 4.3

###

# TEST_METHOD_NOTES: Plasma pharmacokinetics of acivicin in cats with concomitant infusion
# TEST_CONTEXT: cat, in vivo, ip, 60 mg/kg, OAA infusion, n=3; mean ± s.d.
MEASURED_PARAMETER: CL/F (mL/min/kg)
State just the number; it will be interpreted in mL/min/kg.

Just so you know, measured CL/F for N[C@H](C(=O)O)[C@@H]1CC(Cl)=NO1 came out at 1.28

###

# TEST_METHOD_NOTES: Plasma pharmacokinetics of acivicin in cats with concomitant infusion
# TEST_CONTEXT: cat, in vivo, ip, 60 mg/kg, second line "saline", n=4; mean ± s.d.; read-out: Varea
MEASURED_PARAMETER: Vd/F (L/kg)
State just the number; it will be interpreted in L/kg.

Just so you know, measured Vd/F for N[C@H](C(=O)O)[C@@H]1CC(Cl)=NO1 came out at 0.408

###

# TEST_METHOD_NOTES: Plasma pharmacokinetics of acivicin in cats with concomitant infusion
# TEST_CONTEXT: cat, in vivo, ip, 60 mg/kg, LNAA infusion, n=3; mean ± s.d.
MEASURED_PARAMETER: half-life (h)
State just the number; it will be interpreted in h.

Just so you know, measured half-life for N[C@H](C(=O)O)[C@@H]1CC(Cl)=NO1 came out at 8.3

###

# TEST_METHOD_NOTES: Plasma pharmacokinetics of acivicin in cats with concomitant infusion
# TEST_CONTEXT: cat, in vivo, ip, 60 mg/kg, OAA infusion, n=3; mean ± s.d.
MEASURED_PARAMETER: k el (s⁻¹)
State just the number; it will be interpreted in s⁻¹.

Just so you know, measured k el for N[C@H](C(=O)O)[C@@H]1CC(Cl)=NO1 [Acivicin] came out at 2.64e-05

###

# TEST_METHOD_NOTES: Plasma pharmacokinetics of acivicin in cats with concomitant infusion
# TEST_CONTEXT: cat, in vivo, ip, 60 mg/kg, second line "saline", n=4; mean ± s.d.
MEASURED_PARAMETER: half-life (h)
State just the number; it will be interpreted in h.

Just so you know, measured half-life for N[C@H](C(=O)O)[C@@H]1CC(Cl)=NO1 [Acivicin] came out at 2.6

###

# TEST_METHOD_NOTES: Plasma pharmacokinetics of acivicin in cats with concomitant infusion
# TEST_CONTEXT: cat, in vivo, ip, 60 mg/kg, second line "aminosyn", n=4; mean ± s.d.
MEASURED_PARAMETER: k el (s⁻¹)
State just the number; it will be interpreted in s⁻¹.

Just so you know, measured k el for N[C@H](C(=O)O)[C@@H]1CC(Cl)=NO1 came out at 2.58e-05
